Reference source for all entries: patent US12624112

# Target system: T1, Cyno ST2-fc (cyno; human, UniProt A0A2K5UDB8 19-331)
# T1 construct: also called cyno ST2 fused with a human IgG1 Fc tag at the C-terminus
# T1 sequence: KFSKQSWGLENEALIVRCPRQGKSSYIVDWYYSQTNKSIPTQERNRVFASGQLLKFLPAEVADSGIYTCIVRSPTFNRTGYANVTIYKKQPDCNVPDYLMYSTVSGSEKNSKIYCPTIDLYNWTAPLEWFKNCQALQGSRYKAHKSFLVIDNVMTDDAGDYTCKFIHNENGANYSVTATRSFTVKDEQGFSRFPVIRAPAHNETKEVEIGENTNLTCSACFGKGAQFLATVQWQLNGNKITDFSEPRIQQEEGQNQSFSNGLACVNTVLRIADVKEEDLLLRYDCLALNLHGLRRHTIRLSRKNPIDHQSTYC
# Assay remarks: ELISA, coated cyno ST2-fc
Some binders, each annotated with its measured EC50.
Your answer is read as µg/mL, so omit the unit and give the number.

Use these answered entries as a reference point.
input: Reported EC50 for 5888-357H+L (antibody, V domains shown, murine antibody) VH: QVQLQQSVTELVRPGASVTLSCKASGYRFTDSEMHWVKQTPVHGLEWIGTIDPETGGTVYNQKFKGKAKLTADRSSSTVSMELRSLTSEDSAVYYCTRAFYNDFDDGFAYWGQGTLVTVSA VL: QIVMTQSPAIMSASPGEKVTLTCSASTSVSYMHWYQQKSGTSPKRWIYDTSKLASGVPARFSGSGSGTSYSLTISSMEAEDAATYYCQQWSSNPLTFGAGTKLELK : what is it?
output: 0.0192

input: Entry 5888-153H1+L2 (antibody, V domains shown, murine antibody) VH: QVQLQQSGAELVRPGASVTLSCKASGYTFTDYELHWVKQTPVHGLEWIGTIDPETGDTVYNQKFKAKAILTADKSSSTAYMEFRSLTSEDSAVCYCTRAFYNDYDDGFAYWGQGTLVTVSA VL: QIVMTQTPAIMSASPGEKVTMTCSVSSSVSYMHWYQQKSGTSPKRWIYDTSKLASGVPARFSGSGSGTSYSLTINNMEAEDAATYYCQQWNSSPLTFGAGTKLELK has what EC50?
output: 0.0303

input: State the recorded EC50 for this entry: 5887-41H+L (antibody, V domains shown, murine antibody) VH: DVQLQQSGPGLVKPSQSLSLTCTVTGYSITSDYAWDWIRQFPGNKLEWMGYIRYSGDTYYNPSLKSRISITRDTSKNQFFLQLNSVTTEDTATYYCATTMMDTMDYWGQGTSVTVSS VL: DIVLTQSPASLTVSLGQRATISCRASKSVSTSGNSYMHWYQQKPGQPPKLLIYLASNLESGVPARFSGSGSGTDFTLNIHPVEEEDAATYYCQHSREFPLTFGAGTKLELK
output: 0.0615

Further cases:
input: Which EC50 value is on record for 5888-116H1+L1 (antibody, V domains shown, murine antibody) VH: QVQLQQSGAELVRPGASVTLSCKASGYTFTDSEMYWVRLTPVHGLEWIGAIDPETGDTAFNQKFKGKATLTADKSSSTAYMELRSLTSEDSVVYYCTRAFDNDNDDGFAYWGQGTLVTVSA VL: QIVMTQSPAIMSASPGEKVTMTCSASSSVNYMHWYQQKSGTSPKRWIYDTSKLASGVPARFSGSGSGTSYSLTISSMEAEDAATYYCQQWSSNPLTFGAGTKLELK ?
output: 0.0384
